Listed here are compounds together with their documented inhibition.
biological target: Mannose-6-phosphate isomerase (Homo sapiens) (UniProt P34949); experiment: MPI inhibition at elevated mannose 6-phosphate – biochemical, fluorescence intensity, high mannose 6-phosphate, primary screen (AID 1220); conditions: recombinant PMI enzyme, coupled fluorescence intensity; at 20 µM; stronger effect = higher value
Sequence (P34949 whole entry, looked up): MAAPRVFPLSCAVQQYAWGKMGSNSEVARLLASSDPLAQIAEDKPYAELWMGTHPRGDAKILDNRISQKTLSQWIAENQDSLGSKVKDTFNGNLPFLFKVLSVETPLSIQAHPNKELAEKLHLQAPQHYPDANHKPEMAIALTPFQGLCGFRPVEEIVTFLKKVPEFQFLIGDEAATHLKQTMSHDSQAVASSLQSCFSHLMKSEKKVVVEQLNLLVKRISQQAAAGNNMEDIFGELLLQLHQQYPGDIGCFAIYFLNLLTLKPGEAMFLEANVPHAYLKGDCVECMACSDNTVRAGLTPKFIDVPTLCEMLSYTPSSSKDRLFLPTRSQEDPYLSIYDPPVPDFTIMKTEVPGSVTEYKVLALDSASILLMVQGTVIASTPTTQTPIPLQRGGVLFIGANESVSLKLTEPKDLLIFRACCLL
Hit rate of the full screen: of about 190,000 compounds, about 1,300 (0.68%) were called active. Shown is part of a subset that was picked to be rich in actives.
Numbers only here, please. The scale is %.

[
  {
    "chemicalString": "O=c1/c(=C/c2ccc(CNS(=O)(=O)c3ccccc3)o2)sc2n1CCN=2",
    "resultUnits": "%",
    "inhibition": 13.7
  },
  {
    "chemicalString": "Cc1ccc(/C=c2/sc3n(c2=O)CCCN=3)o1",
    "resultUnits": "%",
    "inhibition": -24.9
  },
  {
    "chemicalString": "CCCn1c(=O)c2ccccc2n2c(SCC(=O)Nc3cc(C)on3)nnc12",
    "resultUnits": "%",
    "inhibition": 0
  }
]

Here is the next item to consider.
GET /value?item= `Cc1nc2ccccn2c1C(=O)NN=C1CCCC1` &field=inhibition returns -5
